Reference source: ChEMBL document CHEMBL1148770

MEASURED_ON: UniProt:Q8BZP8
Sequence (Q8BZP8 whole entry): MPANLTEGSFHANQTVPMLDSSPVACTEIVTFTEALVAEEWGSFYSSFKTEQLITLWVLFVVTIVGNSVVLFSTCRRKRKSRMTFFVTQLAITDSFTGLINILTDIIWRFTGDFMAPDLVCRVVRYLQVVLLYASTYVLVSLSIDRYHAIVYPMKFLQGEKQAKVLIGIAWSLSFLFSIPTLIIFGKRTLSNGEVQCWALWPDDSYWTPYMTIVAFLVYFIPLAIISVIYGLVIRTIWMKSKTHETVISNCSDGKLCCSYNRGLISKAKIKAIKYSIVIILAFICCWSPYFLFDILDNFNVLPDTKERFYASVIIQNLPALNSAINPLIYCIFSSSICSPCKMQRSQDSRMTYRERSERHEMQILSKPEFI
TEST_DETAILS: Agonist activity at mouse recombinant NPSR expressed in HEK293 cells assessed as calcium mobilization
Square brackets hold non-standard residues; d marks the D form. Peptide text beside a SMILES is read from it. Aib = CC(C)(N)C(=O)O
PROPERTY: EC50 (nM)
A number alone suffices; assume nM.

Consider the following illustrative entries.
[ask] Query: EC50; subject: CSCC[C@H](NC(=O)CNC(=O)[C@@H](NC(=O)CNC(=O)[C@@H](NC(=O)CNC(=O)[C@H](CC(N)=O)NC(=O)[C@H](CCCNC(=N)N)NC(=O)[C@H](Cc1ccccc1)NC(=O)[C@@H](N)CO)C(C)C)[C@@H](C)O)C(=O)N[C@@H](CCCCN)C(=O)N[C@@H](CCCCN)C(=O)N[C@@H](C)C(=O)N[C@@H](CO)C(=O)N[C@@H](Cc1ccccc1)C(=O)N[C@@H](CCC(N)=O)C(=O)N[C@@H](CCCNC(=N)N)C(=O)N[C@@H](C)C(=O)N[C@@H](CCCCN)C(=O)N[C@@H](CO)C(=O)O (H-SFRNGVGTGMKKASFQRAKS-OH)
[reply] 19.1

[ask] Suppose we examine the compound "CSCC[C@H](NC(=O)[C@H](C)NC(=O)[C@@H](NC(=O)CNC(=O)[C@@H](NC(=O)CNC(=O)[C@H](CC(N)=O)NC(=O)[C@H](CCCNC(=N)N)NC(=O)[C@H](Cc1ccccc1)NC(=O)[C@@H](N)CO)C(C)C)[C@@H](C)O)C(=O)N[C@@H](CCCCN)C(=O)N[C@@H](CCCCN)C(=O)N[C@H](C(=O)N[C@@H](CO)C(=O)N[C@@H](Cc1ccccc1)C(=O)N[C@@H](CCC(N)=O)C(=O)N[C@@H](CCCNC(=N)N)C(=O)N[C@@H](C)C(=O)N[C@@H](CCCCN)C(=O)N[C@@H](CO)C(=O)O)[C@@H](C)O" ; what EC50 value has been reported?
[reply] 23.4

[ask] Look up EC50: "CSCC[C@H](NC(=O)[C@@H](C)NC(=O)[C@@H](NC(=O)CNC(=O)[C@@H](NC(=O)CNC(=O)[C@H](CC(N)=O)NC(=O)[C@H](CCCNC(=N)N)NC(=O)[C@H](Cc1ccccc1)NC(=O)[C@@H](N)CO)C(C)C)[C@@H](C)O)C(=O)N[C@@H](CCCCN)C(=O)N[C@@H](CCCCN)C(=O)N[C@H](C(=O)N[C@@H](CO)C(=O)N[C@@H](Cc1ccccc1)C(=O)N[C@@H](CCC(N)=O)C(=O)N[C@@H](CCCNC(=N)N)C(=O)N[C@@H](C)C(=O)N[C@@H](CCCCN)C(=O)N[C@@H](CO)C(=O)O)[C@@H](C)O"
[reply] 21.4

[ask] I would be grateful if you could share the reported EC50 for CSCC[C@H](NC(=O)CNC(=O)[C@@H](NC(=O)CNC(=O)[C@@H](NC(=O)CNC(=O)[C@H](CC(N)=O)NC(=O)[C@H](CCCNC(=N)N)NC(=O)[C@H](Cc1ccccc1)NC(=O)[C@H](C)N)C(C)C)[C@@H](C)O)C(=O)N[C@@H](CCCCN)C(=O)N[C@@H](CCCCN)C(=O)N[C@H](C(=O)N[C@@H](CO)C(=O)N[C@@H](Cc1ccccc1)C(=O)N[C@@H](CCC(N)=O)C(=O)N[C@@H](CCCNC(=N)N)C(=O)N[C@@H](C)C(=O)N[C@@H](CCCCN)C(=O)N[C@@H](CO)C(=O)O)[C@@H](C)O (H-AFRNGVGTGMKKTSFQRAKS-OH) .
[reply] 26.3

# ---- query compound ----
[ask] Return reported EC50; argument: CSCC[C@H](NC(=O)CNC(=O)[C@@H](NC(=O)CNC(=O)[C@@H](NC(=O)C(C)(C)NC(=O)[C@H](CC(N)=O)NC(=O)[C@H](CCCNC(=N)N)NC(=O)[C@H](Cc1ccccc1)NC(=O)[C@@H](N)CO)C(C)C)[C@@H](C)O)C(=O)N[C@@H](CCCCN)C(=O)N[C@@H](CCCCN)C(=O)N[C@H](C(=O)N[C@@H](CO)C(=O)N[C@@H](Cc1ccccc1)C(=O)N[C@@H](CCC(N)=O)C(=O)N[C@@H](CCCNC(=N)N)C(=O)N[C@@H](C)C(=O)N[C@@H](CCCCN)C(=O)N[C@@H](CO)C(=O)O)[C@@H](C)O (H-SFRN[Aib]VGTGMKKTSFQRAKS-OH)
[reply] 191
